Just for reference, ChEMBL document CHEMBL1201862 is where these values come from.

System: BT-549
experiment-description: NCI tumour cell line growth inhibition, 48 h
Activity calls are given as the source filed them. Rule as the data show it: active = GI50 up to about 1.1 µM and inactive = higher.
property-name: GI50

Query "COc1c(OC)c(OC)c2c(c1OC)c(=O)c1ccccc1n2C" yields GI50 of > 100 µM (inactive)

New cases:
Query "O=C1c2ccccc2-c2c1c(-c1ccc(O)cc1O)nc1ccc3ccccc3c21" yields GI50 of > 100 µM (inactive)

Query "Cc1cc(C)c(-n2[nH]c(=O)n(C)c2=O)c(C)c1" yields GI50 of > 100 µM (inactive)

====

Tested on: NCI-H460
experiment-description: NCI tumour cell line growth inhibition, 48 h
Calls of active or inactive are those of the source. Rule as the data show it: active = GI50 up to about 1.1 µM and inactive = higher.
property-name: GI50

Query "CC(C)(C)C(=O)Oc1ccc(/C=C/C(=O)c2ccc(OC(=O)C(C)(C)C)cc2)cc1" yields GI50 of > 100 µM (inactive)

Query "CC(=O)N1CC(=O)N2C(=O)/C(=C/c3ccc(Cl)cc3)N=C12" yields GI50 of > 100 µM (inactive)

====

System: 786-0
experiment-description: NCI tumour cell line growth inhibition, 48 h
Activity calls are given as the source filed them. No stated cut-off is given here; in the data, active = GI50 up to about 1.1 µM and inactive = higher.
# maps each entry to its GI50

Field: example entries. Status: answers known.
Query "C=CCOC(=O)Cn1cnc2c(N)ncnc21" yields GI50 of > 100 µM (inactive)

Query Cc1cn(CCOCCOC(=O)NC(CCCNC(N)=O)C(=O)O)c(=O)[nH]c1=O (configuration not stated) yields GI50 of > 100 µM (inactive)

Query "N#CCc1c(-c2ccccc2)n(S(=O)(=O)c2ccccc2)c2ccccc12" yields GI50 of > 100 µM (inactive)

Query "Cc1nc2c(C)c3c([nH]c4ccc(Cl)cc43)c(C)c2c(O)c1C" yields GI50 of 3.99 µM (inactive)

Query "Cc1c/c(=N/NC(=O)c2ccncc2)n2nc(N)sc2n1" yields GI50 of > 100 µM (inactive)

New cases:
Query "CCc1cccc(C)c1NC(=O)C(=O)CC(=O)c1ccc(Cl)s1" yields GI50 of > 100 µM (inactive)

Query "Cc1cccc(C(C)(C)C)c1NC(=O)CCl" yields GI50 of > 100 µM (inactive)

====

Test system: M14
experiment-description: NCI tumour cell line growth inhibition, 48 h
Calls of active or inactive are those of the source. Rule as the data show it: active = GI50 up to about 1.1 µM and inactive = higher.
# maps each entry to its GI50

Field: example entries. Status: answers known.
Query CCOC(=O)C1=C(C)N2CCOC2(C)C(C(=O)OC)C1c1cccc(Cl)c1 (stereo not given) yields GI50 of > 100 µM (inactive)

Query "O=C1OC(=O)c2c1nc1ccccc1c2-c1ccccc1" yields GI50 of > 100 µM (inactive)

Query CC1(C)C2CCC3=C(CCC4(C)C5C[C@](C)(C(=O)O)CC[C@]5(C)CC[C@]34C)[C@@]2(C)CC[C@@H]1O (stereo not given in full) yields GI50 of 17.5 µM (inactive)

Query "NS(=O)(=O)c1nnc(NC(=O)/C=C/C(=O)O)s1" yields GI50 of > 100 µM (inactive)

New cases:
Query "C/C(=N\NC(=S)N1CCC(C2CCN(C(=S)N/N=C(\C)c3ccccn3)CC2)CC1)c1ccccn1" yields GI50 of > 100 µM (inactive)

====

Tested on: MDA-N
experiment-description: NCI tumour cell line growth inhibition, 48 h
The source made the active and inactive calls. No stated cut-off is given here; in the data, active = GI50 up to about 1.1 µM and inactive = higher.
property-name: GI50

Field: example entries. Status: answers known.
Query "O=[N+]([O-])c1nccn1CCCNc1c2ccccc2[n+]([O-])c2ccccc12" yields GI50 of > 100 µM (inactive)

Query "Cc1nc2c(C)c3c([nH]c4ccc(Cl)cc43)c(C)c2c(O)c1C" yields GI50 of 6.73 µM (inactive)

Query CC1=C2C(=O)OCC23C=COC3(C)O1 (stereo unspecified) yields GI50 of 29 µM (inactive)

Query "C[n+]1cc2cc(O)c(O)cc2c2ccc3cc(O)c(O)cc3c21.c1ccncc1" yields GI50 of 3.25 µM (inactive)

Query "Cc1c(-c2ccccn2)ccc2ccccc12" yields GI50 of 61 µM (inactive)

New cases:
Query COc1ccc(N2C(=O)C3c4[nH]c5ccc(C)cc5c4C4CCC(C)CC4C3C2=O)cc1 (stereo unspecified) yields GI50 of > 100 µM (inactive)

Query "CC(C)=CCC[C@@H](C)C1=C(O)C(=O)C(C)=C(N)C1=O" yields GI50 of 24.6 µM (inactive)

Query "C=CCOC(=O)Cn1cnc2c(N)ncnc21" yields GI50 of > 100 µM (inactive)

Query "CC(C)(C)c1ccc(-c2nnc(SCc3ccc(Cl)cc3)n2-c2cccc(C(F)(F)F)c2)cc1" yields GI50 of 24.2 µM (inactive)

Query OC(c1ccc(-c2ccccc2)cc1)C(F)(F)c1nc2ccccc2o1 (stereo unspecified) yields GI50 of > 100 µM (inactive)

Query "O=c1c2ccccc2nc(N/N=C/c2ccc([N+](=O)[O-])cc2)n1-c1ccccc1" yields GI50 of 57.5 µM (inactive)

Query "c1ccc2c(c1)[nH]c1c3ccccc3sc21" yields GI50 of > 100 µM (inactive)

Query N=C(CCl)NC1CN2CCC1CC2 (stereo unspecified) yields GI50 of > 100 µM (inactive)

Query "C#CCn1c(=O)c2ccccc2n(CC#C)c1=O" yields GI50 of > 10 µM (inactive)

====

System: K562
experiment-description: NCI tumour cell line growth inhibition, 48 h
Active and inactive are the calls of the source. Cut-off read from the data, not from the text of the source: active = GI50 up to about 1.1 µM and inactive = higher.
Would you mind answering with one of these outcomes? True = active, False = inactive

Before answering, review these 3 worked examples.
Query :: Hi, do you know how CC(=O)OCC(OC(C)=O)C(OC(C)=O)C(OC(C)=O)C(/C=N\Nc1nc2ccccc2c(=O)[nH]1)OC(C)=O (stereo unspecified) came out in this test?
Result :: False

Query :: Hi, do you know how CCN(CC)CCN1C=CC(C)C(C(=O)O)C1C(N)=O (stereo unspecified) came out in this test?
Result :: False

Query :: Hi, do you know how "c1ccc2c(c1)[nH]c1c3ccccc3sc21" came out in this test?
Result :: False

Now consider a different compound.
Query :: Hi, do you know how NC(=S)NNCC(=O)CC(O)(C(F)(F)F)C(F)(F)Cl (stereo unspecified) came out in this test?
Result :: False

====

System: HCT-116
experiment-description: NCI tumour cell line growth inhibition, 48 h
Active and inactive are the calls of the source. No stated cut-off is given here; in the data, active = GI50 up to about 1.1 µM and inactive = higher.
# maps each entry to its GI50

Field: example entries. Status: answers known.
Query c1ccc(SCCP(CCP(c2ccccc2)c2ccccc2)c2ccccc2)cc1 (stereo unspecified) yields GI50 of 1.89 µM (inactive)

Query "O=[N+]([O-])c1nccn1CCCNc1c2ccccc2[n+]([O-])c2ccccc12" yields GI50 of > 100 µM (inactive)

Query "CC1(C)C(=O)CCC(=O)C(C)(C)C2=CC=C(O2)C(C)(C)C(=O)CCC(=O)C(C)(C)C2=CC=C1O2" yields GI50 of > 100 µM (inactive)

New cases:
Query "Cc1cc2c(cc1C)[n+]([O-])c(C(=O)C/C(=N/OCCCc1ccccc1)C(=O)Nc1cc(Cl)ccc1Cl)c(C)[n+]2[O-]" yields GI50 of > 100 µM (inactive)

Query "CC(=O)c1ccccc1NCC(=O)Nn1cnc2ccc(S(=O)(=O)Nc3ccccc3C(C)=O)cc2c1=O" yields GI50 of > 100 µM (inactive)

Query CC(=O)OCC(OC(C)=O)C(OC(C)=O)C(OC(C)=O)C(C=NN(C(C)=O)S(=O)(=O)c1ccc(/C=C2\NC(=O)N(C)C2=O)cc1)OC(C)=O (stereo unspecified) yields GI50 of 16.9 µM (inactive)

Query "O=S(=O)(O)c1ccccc1/N=N\c1ccc(/N=N/c2c(O)ccc3ccccc23)c(S(=O)(=O)O)c1" yields GI50 of > 100 µM (inactive)

Query "Cc1sccc1C(=S)Nc1ccc(Cl)c(/C=N/OC(C)(C)C)c1" yields GI50 of 14.1 µM (inactive)

Query "Cc1ccc(/C=C/C(=O)c2ccc(Cl)c(Cl)c2)cc1" yields GI50 of > 100 µM (inactive)

Query Cc1cccc(NC(=O)C(=O)C(C2OC(=O)c3ccccc32)[N+](=O)[O-])c1C (stereo unspecified) yields GI50 of 5.96 µM (inactive)

Query "COc1ccc2cc(CNCCOCCOCCNCc3ccc4cc(OC)ccc4c3)ccc2c1" yields GI50 of 1.23 µM (inactive)

Query "CC(=O)/C(=C/n1ccc(=O)[nH]c1=S)C(=O)Nc1ccccc1C" yields GI50 of > 100 µM (inactive)

Query "CC(=O)NNC(=S)N/C=C1/C(=O)C=C(C)OC1=O" yields GI50 of > 100 µM (inactive)

Query "O=C(Oc1cccnc1)c1cc2cc(CCl)ccc2oc1=O" yields GI50 of 17.7 µM (inactive)

Query "CC(=O)Nc1[nH]c(C#N)nc1C#N" yields GI50 of > 100 µM (inactive)

Query "O=c1c2cc([N+](=O)[O-])ccc2[nH]n1Cc1ccccn1" yields GI50 of > 100 µM (inactive)

Query "S=C1NCCN1" yields GI50 of > 100 µM (inactive)

Query CCOC(=O)C1(C#N)OC(=O)c2cnccc21 (stereo unspecified) yields GI50 of > 100 µM (inactive)

Query "CCN(CC)CCNc1nc2ccc([N+](=O)[O-])cc2[n+]([O-])n1" yields GI50 of 15.7 µM (inactive)

Query "O=[N+]([O-])c1ccc(O)c(/C=N/NC(=S)N2CCCCC2)c1" yields GI50 of 3.21 µM (inactive)

Query O=C1CC2CC3OC3[C@H]3c4cc5c(cc4C(=O)N1C23)OCO5 (stereo partly specified) yields GI50 of > 100 µM (inactive)
